# targetDesc: PD-L1 His protein / PD-1 Fc protein (Homo sapiens, UniProt Q9NZQ7)
# Sequence (Q9NZQ7 19-238 limits assumed): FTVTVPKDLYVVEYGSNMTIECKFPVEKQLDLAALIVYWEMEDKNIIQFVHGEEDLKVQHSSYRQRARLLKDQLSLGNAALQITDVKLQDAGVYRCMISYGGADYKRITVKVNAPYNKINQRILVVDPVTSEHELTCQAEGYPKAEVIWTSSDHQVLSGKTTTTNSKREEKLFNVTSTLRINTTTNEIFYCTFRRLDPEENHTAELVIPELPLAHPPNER
# assayText: HTRF Assay (PD-1/PD-L1 interaction)
# testParameters: PD-L1 His 6 nM, PD-1 Fc 6 nM
pIC50: −log10 of the molar value.
Label scheme for pIC50: lower than 8 is No, 8 and above is Yes.

INSERT INTO assay_data (molecule, class) VALUES
  ('COc1nc(-c2cccc(-c3cccc(-c4cc5c(=O)n(C)c(CNCCO)nn5c4)c3Cl)c2Cl)ccc1CNC[C@@H]1CCC(=O)N1', 'No'),
  ('COc1nc(-c2cccc(-c3cccc(-c4cc5c(=O)n(C)c(CNCC6(F)CC6)nn5c4)c3Cl)c2Cl)ccc1CNC[C@@H]1CCC(=O)N1', 'No'),
  ('COc1cc(-c2cccc(-c3cccc(-c4ccc(CNC[C@@H]5CCC(=O)N5)c(OC)n4)c3Cl)c2Cl)cc2c1CN(CCC(C)(C)O)CC2', 'Yes'),
  ('CNC(=O)C(C)(C)NCc1cnc2cc(-c3cccc(-c4cccc(-c5ccc(CNC[C@@H]6CCC(=O)N6)c(OC)n5)c4Cl)c3Cl)ccn2c1=O', 'Yes'),
  ('COc1nc(-c2cccc(-c3cccc(-c4cnc5cc(CNC[C@@H]6CCC(=O)N6)oc5c4)c3Cl)c2Cl)ccc1CNC[C@@H]1CCC(=O)N1', 'Yes'),
  ('Cc1c(-c2ccn3c(=O)c(CNC[C@@H]4CCC(=O)N4)cnc3c2)cccc1-c1cccc(-c2ccc3c(c2)CC(NC(=O)[C@@H](N)CO)C3)c1Cl (mixture of isomers)', 'No');

Lookup: Dear colleague, could you confirm whether COc1cc(-c2cccc(-c3cccc(-c4ccc(CNC[C@@H]5CCC(=O)N5)c(OC)n4)c3Cl)c2Cl)cc2c1CN(CC(O)C(C)C)CC2 (stereo partly drawn) has pIC50 at or above 8?
Found: Yes

Lookup: Dear colleague, could you confirm whether COC(=O)C1CN(Cc2cnc3cc(-c4cccc(-c5cccc(-c6ccc(CNC[C@@H]7CCC(=O)N7)c(OC)n6)c5Cl)c4Cl)cc(C)n3c2=O)C1 has pIC50 at or above 8?
Found: Yes

====

# targetDesc: PD-L1 His protein / PD-1 Fc protein (Homo sapiens)
# assayText: HTRF Assay (PD-1/PD-L1 interaction)
# testParameters: PD-L1 His 6 nM, PD-1 Fc 6 nM
pIC50: −log10 of the molar value.
Label scheme for pIC50: lower than 8 is Not fulfilled, 8 and above is Fulfilled.

INSERT INTO assay_data (compound, class) VALUES
  ('COc1nc(-c2cccc(-c3cccc(-c4ccn5c(=O)c(CN6CCCC6CO)cnc5c4)c3Cl)c2Cl)ccc1CNC[C@@H]1CCC(=O)N1 (stereo partly drawn)', 'Fulfilled'),
  ('COc1nc(-c2cccc(-c3cccc(-c4ccn5c(=O)c(C6=NCCC(C(=O)O)N6)cnc5c4)c3Cl)c2Cl)ccc1CNC[C@@H]1CCC(=O)N1 (mixture of isomers)', 'Fulfilled'),
  ('COc1nc(-c2cccc(-c3cccc(-c4ccn5c(=O)c(CNC[C@H](C)O)c(C)nc5c4)c3Cl)c2Cl)ccc1CNC[C@H](C)O', 'Fulfilled');

As a next step, examine the compound that follows.
Lookup: Dear colleague, could you confirm whether Cn1cc(CNC[C@@H]2CCC(=O)N2)c2ccc(-c3cccc(-c4cccc(-c5ccc6c(CNC[C@@H]7CCC(=O)N7)cn(C)c6n5)c4Cl)c3Cl)nc21 has pIC50 at or above 8?
Found: Not fulfilled

====

# targetDesc: PD-L1 His protein / PD-1 Fc protein (Homo sapiens, UniProt Q9NZQ7)
# assayText: HTRF Assay (PD-1/PD-L1 interaction)
# testParameters: PD-L1 His 6 nM, PD-1 Fc 6 nM
parameterMeasured: IC50 (nM)
Return type: number; implicit unit nM.

Solved cases (3 shown):
INSERT INTO assay_data (smilesrepresentation, parametermeasured, unitinfo, testresult) VALUES
  ('COc1nc(-c2cccc(-c3cccc(-c4ccn5c(=O)c(CNCC(C)(C)CO)cnc5c4)c3Cl)c2Cl)ccc1CNC[C@@H]1CCC(=O)N1', 'IC50', 'nM', 4.2),
  ('COc1nc(-c2cc(F)cc(-c3cccc(-c4ccn5c(=O)c(CNC[C@@H]6CCC(=O)N6)cnc5c4)c3Cl)c2Cl)ccc1CNC[C@@H]1CCC(=O)N1', 'IC50', 'nM', 4.1),
  ('Cc1c(-c2ccn3c(=O)c(CNC[C@@H]4CCC(=O)N4)cnc3c2)cccc1-c1cccc(-c2ccc(CNC[C@@H]3CCC(=O)N3)c(OC(F)(F)F)c2)c1Cl', 'IC50', 'nM', 11);

Looking up COc1nc(-c2cccc(-c3cccc(-c4ccn5c(Cl)c(CNC[C@@H]6CCC(=O)N6)nc5c4)c3Cl)c2Cl)ccc1CNC[C@@H]1CCC(=O)N1 , I found its IC50 recorded as 110

Looking up COc1nc(-c2cccc(-c3cccc(-c4ccn5c(=O)c(CN(C)CCN)cnc5c4)c3Cl)c2Cl)ccc1CNC[C@@H]1CCC(=O)N1 , I found its IC50 recorded as 0.1

Looking up COc1nc(-c2cccc(-c3cccc(-c4ccn5c(=O)c(CN6C[C@@H](O)[C@H](O)C6)cnc5c4)c3Cl)c2Cl)ccc1CNC[C@@H]1CCC(=O)N1 , I found its IC50 recorded as 530

====

# targetDesc: PD-L1 His protein / PD-1 Fc protein (Homo sapiens, UniProt Q9NZQ7)
# assayText: HTRF Assay (PD-1/PD-L1 interaction)
# testParameters: PD-L1 His 6 nM, PD-1 Fc 6 nM
pIC50: −log10 of the molar value.
Label scheme for pIC50: lower than 9 is No, 9 and above is Yes.

Use the examples below as a reference point.
INSERT INTO assay_data (compound, class) VALUES
  ('O=C1CC[C@@H](CNCc2ccc(-c3cccc(-c4cccc(-c5ccn6c(=O)c(CNC[C@@H]7CCC(=O)N7)cnc6c5)c4Cl)c3Cl)cc2OC(F)(F)F)N1', 'No'),
  ('COc1nc(-c2cccc(-c3cccc(-c4cc(C)n5c(=O)c(CNC[C@H](C)O)cnc5c4)c3Cl)c2Cl)ccc1CNC[C@@H]1CCC(=O)N1', 'No'),
  ('COc1nc(-c2cccc(-c3cccc(-c4ccn5c(=O)c(CNC6CC7(CCNC7=O)C6)cnc5c4)c3Cl)c2Cl)ccc1CNC[C@@H]1CCC(=O)N1 (single isomer, unassigned) [Example 251]', 'No');

Lookup: Dear colleague, could you confirm whether COc1nc(-c2cccc(-c3cccc(-c4ccn5c(=O)c(C6=NCC(C(=O)O)N6)cnc5c4)c3Cl)c2Cl)ccc1CNC[C@@H]1CCC(=O)N1 (mixture of isomers) has pIC50 at or above 9?
Found: Yes

Lookup: Dear colleague, could you confirm whether COc1nc(-c2cccc(-c3cccc(-c4cc5c(=O)n(C)c(CN6CC(C)(C#N)C6)nn5c4)c3Cl)c2Cl)ccc1CNC[C@@H]1CCC(=O)N1 has pIC50 at or above 9?
Found: No

Lookup: Dear colleague, could you confirm whether COc1cc(-c2cccc(-c3cccc(-c4ccc(CNC[C@@H]5CCC(=O)N5)c(OC)n4)c3Cl)c2Cl)cc2c1CN(CCO)CC2 has pIC50 at or above 9?
Found: No

Lookup: Dear colleague, could you confirm whether Cc1nc(-c2cccc(-c3cccc(-c4ccn5c(=O)c(CNC[C@@H]6CCC(=O)N6)cnc5c4)c3C)c2Cl)ccc1CNC[C@@H]1CCC(=O)N1 has pIC50 at or above 9?
Found: No

Lookup: Dear colleague, could you confirm whether COc1nc(-c2cccc(-c3cccc(-c4ccc5[nH]c(CNC[C@@H]6CCC(=O)N6)c(Cl)c5n4)c3Cl)c2Cl)ccc1CNC[C@@H]1CCC(=O)N1 has pIC50 at or above 9?
Found: No

Lookup: Dear colleague, could you confirm whether COc1nc(-c2cccc(-c3cccc(N4Cc5cc(CNC[C@@H]6CCC(=O)N6)ccc5C4=O)c3Cl)c2Cl)ccc1CNC[C@@H]1CCC(=O)N1 has pIC50 at or above 9?
Found: Yes

Lookup: Dear colleague, could you confirm whether COc1nc(-c2cccc(-c3cccc(-c4cc5c(=O)n(C)c(CNC[C@H](C)O)nn5c4)c3Cl)c2Cl)ccc1CNC[C@@H]1CCC(=O)N1 has pIC50 at or above 9?
Found: Yes

====

# targetDesc: PD-L1 His protein / PD-1 Fc protein (Homo sapiens)
# assayText: HTRF Assay (PD-1/PD-L1 interaction)
# testParameters: PD-L1 His 6 nM, PD-1 Fc 6 nM
parameterMeasured: pIC50
Answer as the number alone; pIC50 is minus log10 of concentration in mol/L.

INSERT INTO assay_data (compound, targetdesc, testresult) VALUES
  ('COc1nc(-c2cccc(-c3cccc(-c4cc5c(=O)n(C)c(CN(C)CCO)nn5c4)c3Cl)c2Cl)ccc1CNC[C@@H]1CCC(=O)N1', 'PD-L1 His protein / PD-1 Fc protein (Homo sapiens)', 8.17),
  ('COc1nc(-c2cccc(-c3cccc(-c4ccc5nc(CNCCO)cn5n4)c3Cl)c2Cl)ccc1CNC[C@@H]1CCC(=O)N1', 'PD-L1 His protein / PD-1 Fc protein (Homo sapiens)', 9.30),
  ('Cc1c(-c2ccn3c(=O)c(CNC[C@@H]4CCC(=O)N4)cnc3c2)cccc1-c1cccc(-c2ccc3c(c2)CC(NC(=O)[C@@H]2CCCN2)C3)c1Cl (mixture of isomers)', 'PD-L1 His protein / PD-1 Fc protein (Homo sapiens)', 6.28),
  ('COc1nc(-c2cccc(-c3cccc(-c4ccn5c(=O)c(CN6CC(CO)C6)cnc5c4)c3Cl)c2Cl)ccc1CN1CC(C(=O)O)C1', 'PD-L1 His protein / PD-1 Fc protein (Homo sapiens)', 9.70),
  ('COc1nc(-c2cccc(-c3cccc(-c4ccn5c(=O)c(CNCC67CCC(C6)C(=O)N7)cnc5c4)c3Cl)c2Cl)ccc1CNC[C@@H]1CCC(=O)N1 (stereo partly drawn)', 'PD-L1 His protein / PD-1 Fc protein (Homo sapiens)', 8.33);

# context switch: different compound, same pIC50
Looking up COc1nc(-c2cccc(-c3cccc(-c4ccn5c(=O)c(CN(C)C[C@H](C)O)cnc5c4)c3Cl)c2Cl)ccc1CNC[C@@H]1CCC(=O)N1 , I found its pIC50 recorded as 10.00
